tested on: A549; assay: Antiproliferative activity against human A549 cells assessed as reduction in cell viability incubated for 72 hrs by SRB assay; type: functional; conditions: A549, 72 h
Property Measured: GI50 (nM)

* CNc1nc(N2CC(=O)Nc3cc(OC)ccc32)c2cc(OC)c(OC)cc2n1 | 54
* COc1ccc2c(c1)NC(=O)CN2c1cc(C)nc2ccccc12 | 5.4
* COc1ccc2c(c1)NC(=O)CCN2c1nc(C)nc2ccccc12 | 838
* COc1ccc2c(c1)NC(=O)CN2c1nc(Cl)nc2cc(OC)c(OC)cc12 | 50
* COc1ccc2c(c1)NC(=O)CN2c1nccc2nccnc12 | 617

P. COc1ccc2c(c1)NC(=O)CN2c1nc(Cl)nc2cccnc12
Q. COc1ccc2c(c1)NC(=O)CCCN2c1nc(C)nc2ccccc12
R. COc1ccc2c(c1)NC(=O)CN2c1nc(OC)nc2cc(OC)c(OC)cc12
S. CC(=O)O[C@H]1C(=O)[C@@]2(C)[C@H]([C@H](OC(=O)c3ccccc3)[C@]3(O)C[C@H](OC(=O)[C@H](O)[C@@H](NC(=O)c4ccccc4)c4ccccc4)C(C)=C1C3(C)C)[C@]1(OC(C)=O)CO[C@@H]1C[C@@H]2O
Q) rank_up(items): orders items by reported GI50 in ascending numerical order. Output spec: a listing of the labels in the requested order.
A) S, P, R, Q
(S: 2.4 nM, P: 5.3 nM, R: 544 nM, Q: 5900 nM)

====

tested on: A549; experiment: Antiproliferative activity against human A549 cells assessed as reduction in cell viability incubated for 72 hrs by SRB assay; type: functional; details: A549, 72 h
Property Measured: GI50 (nM)

# example entries with known answers
- COc1ccc2c(c1)NC(=O)CN2c1ncnc2ccc(Br)cc12: 5.5
- COc1ccc2c(c1)NC(=O)CN2c1ncnc2ncccc12: 566

A. COc1ccc(/C=C\c2cc(OC)c(OC)c(OC)c2)cc1O
B. COc1ccc2c(c1)NC(=O)CN2c1nc(NCCCO)nc2cc(OC)c(OC)cc12
Q) Could you point out whether the larger GI50 belongs to A or to B ? API: response body contains the label of the selected item.
A) B

====

tested on: A549; assay: Antiproliferative activity against human A549 cells assessed as reduction in cell viability incubated for 72 hrs by SRB assay; type: functional; settings: A549, 72 h
Property Measured: GI50

// below: answered molecules
* COc1ccc2c(c1)C(=O)NCCN2c1nc(C)nc2ccccc12 | > 2 µM
* COc1ccc2c(c1)NC(=O)CN2c1nccc2c1NC=CN2 | > 40 µM

Q) Identify measured GI50 obtained with A549 for COc1ccc2c(c1)NC(=O)CCCCN2c1nc(C)nc2ccccc12 .
A) > 10 µM
